Target: POsterior Segregation (Caenorhabditis elegans, UniProt G5EF15)
Sequence (G5EF15 whole entry): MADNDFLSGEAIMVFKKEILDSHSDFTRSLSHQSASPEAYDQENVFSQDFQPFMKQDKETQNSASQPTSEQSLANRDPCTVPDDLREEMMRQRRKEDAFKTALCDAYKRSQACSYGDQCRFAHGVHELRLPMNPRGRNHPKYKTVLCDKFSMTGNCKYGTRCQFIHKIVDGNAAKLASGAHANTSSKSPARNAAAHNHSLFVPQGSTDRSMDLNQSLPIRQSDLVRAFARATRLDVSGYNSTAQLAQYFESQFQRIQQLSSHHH
Experiment: inhibitors of POS-1/mex-3 RNA binding, dose response, biochemical, fluorescence polarization (AID 1964)
recorded-metric: EC50

| compound | recorded-metric | reported-value |
| --- | --- | --- |
| Cc1nnc(N2C(=O)C(=O)C(C(=O)c3ccco3)C2c2ccc(F)cc2)s1 (stereo unspecified) | EC50 | 34.2 µM |
| O=C(Cc1nc2cc(Cl)ccc2oc1=O)c1ccco1 | EC50 | > 300 µM |
| N#CC1C(=N)OC2=C(C(=O)CCC2)[C@]12C(=O)N(CC(N)=O)c1ccccc12 (stereo partly specified) | EC50 | > 300 µM |
| CC(=O)N1CCN(c2ccc(NC=C3C(=O)NC(=O)N(Cc4ccccc4)C3=O)cc2)CC1 [MLS000041641] | EC50 | > 300 µM |
| Cc1ccc(Cl)c2c1NC(=O)/C2=C1/NC(=S)NC1=O | EC50 | 14.3 µM |
| O=NCc1cccn1-c1cccc(C(=O)O)c1 | EC50 | > 300 µM |

---

# EC50 per record follows
Target: POsterior Segregation (Caenorhabditis elegans, UniProt G5EF15)
Assay: inhibitors of POS-1/mex-3 RNA binding, dose response, biochemical, fluorescence polarization (AID 1964)
recorded-metric: EC50

| molecule | reported-value |
| --- | --- |
| CN(C)CCCNC=C1C(=O)NC(=O)N(CCc2ccc(F)cc2)C1=O | > 300 µM |
| CCCOc1cccc(C2C(C(=O)c3ccco3)C(=O)C(=O)N2c2nnc(C)s2)c1 (stereo not given) | 51.9 µM |
| CCC(C)N1C(=O)C(=CNNc2nc3c(c(=O)n(C)c(=O)n3C)n2C)C(=O)NC1=S (stereo not given) | > 300 µM |
| COc1ccc(C=C2CCCC(C(=O)C(F)(F)F)C2=O)cc1OC (stereo not given) | > 300 µM |
| Cc1c(C(=O)O)cccc1-n1c(C)cc(CN=Nc2ccc([N+](=O)[O-])cn2)c1C | > 300 µM |
| C[C@H]1c2cccc(O)c2C(=O)C2C(=O)[C@]3(O)C(=O)C(C(N)=O)C(=O)[C@@H](N(C)C)C3C(O)C21 (stereo not given in full) | > 300 µM |
| O=C(Cc1nc2ccccc2n(-c2ccccc2)c1=O)c1ccccc1 | 78.2 µM |
| Cc1ccc(N=CC2Sc3ccccc3NC2=O)cc1 (stereo not given) | > 300 µM |
| Brc1ccc(C2=Nc3ncnn3C(c3ccco3)C2)cc1 (stereo not given) | > 300 µM |
| O=C1N=C(O)C(C2=c3cc([N+](=O)[O-])ccc3=NC2=O)S1 (stereo not given) | 13.2 µM |

---

We begin with a simple list: items and their reported log10 EC50.
Target: POsterior Segregation (Caenorhabditis elegans, UniProt G5EF15)
Experiment: inhibitors of POS-1/mex-3 RNA binding, dose response, biochemical, fluorescence polarization (AID 1964)
recorded-metric: log10 EC50 (log10 of the value in µM)

| compound | log10 EC50 |
| --- | --- |
| COc1cc(CN=Nc2[nH]c(=O)nnc2C)ccc1O | 1.75 |
| CSc1ccc(C2C(C(=O)c3ccco3)C(=O)C(=O)N2c2nnc(SC)s2)cc1 (stereo not given) | 0.83 |
| O=C1NC(=S)N(c2ccc(F)cc2)C(=O)C1=Cc1ccco1 | 1.02 |
| O=C(Cc1nc2cc(Cl)ccc2oc1=O)c1cccs1 | 2.36 |
| O=[N+]([O-])c1cc([CH+][N-]n2c(O)csc2=S)ccc1Cl | 1.27 |
| C=CCn1c(=O)c(=Cc2ccc(C)o2)s/c1=C(\C#N)C(=O)c1ccccc1 | 1.49 |

---

Target: POsterior Segregation (Caenorhabditis elegans, UniProt G5EF15)
Assay: inhibitors of POS-1/mex-3 RNA binding, dose response, biochemical, fluorescence polarization (AID 1964)
pEC50: −log10 of the molar value.
Some compounds, each annotated with its measured pEC50.

| compound | tested-system | operator | pEC50 |
| --- | --- | --- | --- |
| Cc1cc(CN=Nc2ccc([N+](=O)[O-])cn2)c(C)n1-c1ccc(C(=O)O)cc1 | POsterior Segregation (Caenorhabditis elegans, UniProt G5EF15) | < | 3.52 |
| NC(=O)c1ccccc1N=CCC(=O)c1ccc(F)cc1 | POsterior Segregation (Caenorhabditis elegans, UniProt G5EF15) | < | 3.52 |
| c1ccc(C2=NNC(c3ccccn3)N=N2)nc1 (centres undefined) | POsterior Segregation (Caenorhabditis elegans, UniProt G5EF15) | = | 4.60 |
| CCOC(=O)C1C(=O)C(=Cc2cn(CC(=O)N3CCCC3)c3ccccc23)S/C1=N\c1ccccc1 (centres undefined) | POsterior Segregation (Caenorhabditis elegans, UniProt G5EF15) | = | 4.32 |
| CN(C)[C@@H]1C(=O)C(C(N)=O)C(=O)[C@@]2(O)C(=O)C3C(=O)c4c(O)cccc4[C@@](C)(O)C3C(O)C12 (some centres undefined) | POsterior Segregation (Caenorhabditis elegans, UniProt G5EF15) | = | 4.27 |
| O=C(N/N=C/C1C=C(Cl)C=C([N+](=O)[O-])C1=O)c1ccccc1NS(=O)(=O)c1cccs1 (centres undefined) | POsterior Segregation (Caenorhabditis elegans, UniProt G5EF15) | = | 3.55 |
| CC1(C)c2[nH]c3ccccc3c2Cc2c(O)n(-c3ccc(F)cc3F)c(=O)n21 | POsterior Segregation (Caenorhabditis elegans, UniProt G5EF15) | < | 3.52 |
| N#CC1C(=N)Oc2cc(O)c(Cl)cc2C1c1ccccc1F (centres undefined) | POsterior Segregation (Caenorhabditis elegans, UniProt G5EF15) | < | 3.52 |
| CC1=C(C#N)C(=O)N(C)C(=O)C1=CNNc1ccc(F)cc1 | POsterior Segregation (Caenorhabditis elegans, UniProt G5EF15) | < | 3.52 |

---

Listed next: entries and their corresponding EC50.
Target: POsterior Segregation (Caenorhabditis elegans)
Assay: inhibitors of POS-1/mex-3 RNA binding, dose response, biochemical, fluorescence polarization (AID 1964)
recorded-metric: EC50 (µM)

| molecule | operator | reported-value |
| --- | --- | --- |
| O=C(c1ccccc1)c1[nH]n(-c2ccccc2)c2c(O)n(-c3ccccc3Cl)c(=O)c1-2 | > | 300 |
| Cc1cc(C=C2C(=O)NC(=O)N(c3ccccc3)C2=O)c(C)n1-c1ccc(F)cc1 | = | 101 |
| Cc1ccc(-c2c(CCC(C)N=O)oc3ccc(Cl)cc23)o1 (centres undefined) | > | 300 |
| Cc1cc(C(=O)NN=CC2C=C(Cl)C=C([N+](=O)[O-])C2=O)[nH]n1 (centres undefined) | > | 300 |
| COc1cccc(C2C(C(=O)c3cc4cccc(OC)c4o3)C(=O)C(=O)N2c2cc(C)on2)c1OC (centres undefined) | > | 300 |
| NC(=NNC=c1ccc(=C2C=CC(=O)C(C(=O)O)=C2)o1)N[N+](=O)[O-] | = | 29.9 |
| O=C1C=CC(/C=C/c2nc(O)c([N+](=O)[O-])c(=O)[nH]2)C=C1O (centres undefined) | = | 250 |
| O=C(NN=Cc1c(O)ccc2ccccc12)Nc1ccccc1 | = | 105 |
| C=CCc1cccc(C=Nn2cnnc2)c1O | = | 226 |

---

Biological target: POsterior Segregation (Caenorhabditis elegans, UniProt G5EF15)
Test: inhibitors of POS-1/mex-3 RNA binding, dose response, biochemical, fluorescence polarization (AID 1964)

| compound | operator | EC50 / µM |
| --- | --- | --- |
| Cn1c(=O)[nH]c(=O)c2c1nc(N=NC=C(Br)Cc1ccccc1)n2CCO | = | 206 |
| O=C1NC(=O)N(CCc2ccc(F)cc2)C(=O)C1=CNNC(=O)c1ccccc1 | > | 300 |
| CS(=O)(=O)Nc1nc2n(n1)C(c1ccccc1)CC(c1ccc(Br)cc1)=N2 (stereo not given) | > | 300 |
| COc1ccc(C(=O)Nc2nnc(CC(=O)NN=Cc3ccc(O)cc3O)s2)cc1 | = | 125 |
| O=C(N[N-][CH+]c1cc([N+](=O)[O-])ccc1N1CCCC1)c1ccccn1 | = | 149 |
| O=C(c1ccccc1)[C@@H]1c2c(c(O)n(-c3ccc(F)cc3)c2O)C2CCCN21 (stereo not given in full) | = | 37.9 |
| CC(C)c1nnc(N2C(=O)C(=O)C(C(=O)c3cccs3)C2c2ccccc2)s1 (stereo not given) | = | 33.9 |
| COc1ccc(C2C3=C(CC(C)(C)CC3=O)OC(=N)C2C#N)cc1OC (stereo not given) | > | 300 |
| Cc1ccc2c(c1)=C(NNc1ccccc1C)C(=O)N=2 | > | 300 |
| N#CC1C(=N)OC2=C(C(=O)CCC2)C1c1ccc(OC(=O)N2CCOCC2)cc1 (stereo not given) | > | 300 |
| COc1cc(C2NC(=S)N=C(C)C2C(=O)OC(C)C)ccc1OC(C)C (stereo not given) | > | 300 |
| CCn1nc(C)c(C=C2CCCC3=C2OC(=N)C(C#N)C3c2c(C)nn(CC)c2C)c1C (stereo not given) | = | 36 |
| COc1ccc(N2C(=O)NC(=O)C(=Cc3c[nH]c4ccc(Br)cc34)C2=O)c(OC)c1 | > | 300 |
| COC1=CC(CN=Nc2[nH]c(=O)nnc2C)C=C([N+](=O)[O-])C1=O (stereo not given) | = | 7.98 |
| O=C1C(=Nc2ccccc2O)C(Cl)C(=O)N1c1ccccc1 (stereo not given) | > | 300 |
| Cc1[nH]n(C(N)=S)c(=O)c1N=Nc1c(Cl)cc([N+](=O)[O-])cc1Cl | > | 300 |
| CN1CCC2(CC1)C(C#N)C(=N)NC(=S)C2C#N (stereo not given) | = | 8.05 |
| O=C1Nc2ccccc2C1=NNc1ccccc1 [3-(phenylhydrazo)-2-indolone] | = | 7.37 |
| O=C(Cc1nc2cc([N+](=O)[O-])ccc2[nH]c1=O)c1ccccc1 | = | 20.1 |
| Cc1ccc2oc(=O)c(CC(=O)CC(C)C)nc2c1 | > | 300 |
| CN1CCC2=C(C#N)C(=N)C(C#N)(C#N)C(c3ccncc3)C2C1 (stereo not given) | = | 52.9 |
| N#CC(C(=O)c1cc2ccccc2o1)c1nc2ccccc2s1 (stereo not given) | > | 300 |
| CCOC(=O)N1CCC2=C(C#N)C(=N)C(C#N)(C#N)[C@H](c3ccsc3)[C@H]2C1 | = | 78.8 |
| CCN(CC)c1ccc(C=NC(C#N)C(=N)C#N)cc1 (stereo not given) | = | 281 |
| CSc1nnc(N2C(=O)C(=O)C(C(=O)c3ccco3)C2c2ccccc2)s1 (stereo not given) | > | 300 |
| Oc1ccc(CN=Nc2ccc(Cl)nn2)c(O)c1O | = | 50 |
| CN(C)[C@@H]1C(=O)C(C(N)=O)C(=O)[C@@]2(O)C(=O)C3C(=O)c4c(O)cccc4[C@@](C)(O)[C@H]3[C@H](O)[C@@H]12 (stereo not given in full) | = | 65.8 |
| Cc1ccc(NC=C2SC(=O)c3ccccc32)c(C)c1 | > | 300 |
| Cc1[nH]n(C(N)=S)c(=O)c1N=Nc1cccc(C(=O)O)c1 | = | 35.1 |
| CC1=C(C#N)C(=O)N(C)C(=O)C1=CNNc1ccc(C)c(C)c1 | > | 300 |
| Cc1c(NC=C2C(=O)N(C)C(=O)c3ccccc32)c(=O)n(-c2ccccc2)n1C | > | 300 |
| COc1ccc(N=Cc2cc3c(cc2O)OC(=N)C(C#N)C3c2ccccc2)cc1 (stereo not given) | > | 300 |
| COc1cc(CN=Nc2ccc([N+](=O)[O-])cc2)ccc1OCC(=O)Nc1ccc(C)c(C)c1 | > | 300 |
| CN1CCC2=C(C#N)C(=N)C(C#N)(C#N)C(c3cccc(Cl)c3Cl)C2C1 (stereo not given) | = | 14.4 |
| CC(=O)C1C(c2ccccc2)=NC(=O)NC1c1ccc(O)c(O)c1 (stereo not given) | > | 300 |
| O=C1NC(=O)N(CCc2ccc(F)cc2)C(=O)C1=CNCCCn1ccnc1 | > | 300 |
| CC1(C)CC(=O)C2=C(C1)OC(=N)C(C#N)C2c1ccc(OC(=O)N2CCOCC2)cc1 (stereo not given) | > | 300 |
| O=C1NC(=O)N(Cc2ccccc2)C(=O)C1=CNc1ccc(CN2CCOCC2)cc1 | > | 300 |
| C/N=c1\ccc2nc3ccccc3n(C)c-2c1 | = | 20.5 |
| Cc1ccc(NNC2=Nc3ccccc3C2=O)cc1 [2-[(4-methylphenyl)hydrazo]-3-indolone] | = | 16 |
